Test system: SK-MEL-2
Assay: Antiproliferative activity against human SK-MEL-2 cells at 30 uM after 48 hrs in presence of hypoxic condition by MTT assay
Type: functional, cell-based
Calls of active or inactive are those of the source. No cut-off for these calls is given here.
Bench note: report the call from active, inactive

-- ask Hi team, can someone confirm the assay call for NS(=O)(=O)c1cccc(-c2noc(-c3ccsc3)n2)c1 ?
-- reply inactive

-- ask Called result for NS(=O)(=O)c1cc(-c2nc(C3CC3)no2)cs1
-- reply active

-- ask Hello, I am checking results. What call was entered for NS(=O)(=O)c1ccc(-c2noc(-c3cccs3)n2)cc1 ?
-- reply inactive

-- ask Test call for this compound, please: NS(=O)(=O)c1cc(-c2nc(-c3ccccn3)no2)cs1
-- reply inactive

----------
I'd appreciate it if you could supply log10 Ki values for the items below.
Biological target: Carbonic anhydrase 2 (Homo sapiens)
// units: nM (pre-log); metric: Ki; scale: log10

-- ask Hi! What's the reported log10 Ki for NS(=O)(=O)c1ccc(-c2noc(-c3cccs3)n2)cc1 on Carbonic anhydrase 2 (Homo sapiens)?
-- reply -0.41

-- ask Hello, I am looking for reported log10 Ki with Carbonic anhydrase 2 (Homo sapiens) for NS(=O)(=O)c1cc(-c2nc(C3CC3)no2)cs1 . Could you help?
-- reply -0.12

-- ask Return log10 Ki measured with Carbonic anhydrase 2 (Homo sapiens) given this compound: NS(=O)(=O)c1ccc(-c2noc(-c3ccncc3)n2)cc1
-- reply -0.52

-- ask API: value(readout=log10 Ki, system=Carbonic anhydrase 2 (Homo sapiens)) for record NS(=O)(=O)c1cc(-c2nc(-c3ccccn3)no2)cs1
-- reply 0.63

-- ask Field: log10 Ki (Carbonic anhydrase 2 (Homo sapiens)). Entry: COc1cc(S(N)(=O)=O)ccc1-c1noc(-c2ccsc2)n1
-- reply 1.96
